Reference source for all entries: patent US20230009608A1

- Tgt: GRK2 (Homo sapiens)
- Construct: purchased SignalChem A14-10G
- Sequence (P25098 whole entry): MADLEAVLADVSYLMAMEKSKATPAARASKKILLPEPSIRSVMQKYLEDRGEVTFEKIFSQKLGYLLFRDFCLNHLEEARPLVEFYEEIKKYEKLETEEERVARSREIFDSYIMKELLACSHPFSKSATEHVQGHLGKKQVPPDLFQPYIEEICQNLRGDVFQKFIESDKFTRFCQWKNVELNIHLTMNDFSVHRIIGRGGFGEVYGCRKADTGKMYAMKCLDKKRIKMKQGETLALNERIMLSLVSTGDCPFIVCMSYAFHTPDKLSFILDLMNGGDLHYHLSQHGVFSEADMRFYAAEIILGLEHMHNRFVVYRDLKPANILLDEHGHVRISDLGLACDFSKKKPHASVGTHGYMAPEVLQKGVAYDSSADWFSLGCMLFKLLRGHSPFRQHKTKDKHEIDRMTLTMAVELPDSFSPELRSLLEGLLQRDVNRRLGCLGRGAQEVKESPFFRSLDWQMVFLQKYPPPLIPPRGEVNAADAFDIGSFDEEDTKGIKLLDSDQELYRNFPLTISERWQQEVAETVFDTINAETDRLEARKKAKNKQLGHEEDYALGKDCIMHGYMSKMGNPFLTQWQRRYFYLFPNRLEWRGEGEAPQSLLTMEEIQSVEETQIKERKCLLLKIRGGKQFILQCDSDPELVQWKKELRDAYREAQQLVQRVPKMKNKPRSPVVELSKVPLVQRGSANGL
- Assay Method Text: GRK2 Inhibition Assay (TR-FRET, Example 7)
- Assay type: biochemical
- Test Settings: Enzyme Assay B, TR-FRET (Example 7); read-out: B: Enzymatic GRK2: IC50 (nM) (Example 7)
- Procedure: Enzyme GRK2 (1 nM final concentration) was diluted in 25 mMv HEPES, 10 mM MgCl2, 2 mM DTT, 0.01% Tween-20, and 1 mM EGTA. Then the GRK2 mixture was added into ProxiPlate-384 white plate and pre-incubated for 30 min with test compounds at room temperature. […] After 60 min incubation time at room temperature, TR-FRET signal was measured by EnVision plate reader.
Quantity Kind: IC50 (nM)

Check out these entries, answers already filled in.
Compound: Cn1c(CNc2cccc(C(=O)NCc3ccc(-n4ccnn4)cc3)c2)nnc1-c1ccncn1 [drawing 579]
IC50 (nM): 18

Compound: O=C(NCc1cccc(F)c1)c1cccc(NCc2nnc3n2CCOc2cnccc2-3)c1
IC50 (nM): 3.7

Compound: O=C(NCc1cccc2c1OCC2)c1cccc(NCc2nnc3n2CCOc2cnccc2-3)c1
IC50 (nM): 2.4

I: Cn1c(CNc2cccc(C(=O)N[C@@H]3CCOc4ccc(Cl)cc43)c2)nnc1-c1ccncn1
II: Cn1c(CNc2cccc(C(=O)N[C@H]3CCOc4ccc(Cl)cc43)c2)nnc1-c1ccncn1
Could you kindly indicate whether I or II has the higher IC50 value? # answer = label of selected item
II
(II: 120 nM, I: 2.9 nM)
